# Tested on: KM20L2 colon
# Measurement Notes: NCI tumour cell line growth inhibition, 48 h
Property: TGI (µM)
Give the quantity in µM, number only.

Enquiry: // lookup TGI for CN(C)CC/C(=N\Nc1ccc(Cl)c(Cl)c1)c1ccccc1
Return: 3.17

Enquiry: // lookup TGI for COc1cc([C@@H]2c3cc4c(cc3[C@@H](NCc3ccccc3)C3COC(=O)[C@@H]32)OCO4)cc(OC)c1O (stereo partly drawn)
Return: 85.6

Enquiry: // lookup TGI for CC[N+]1(C)CCC(O)(c2ccccc2)C(C(=O)c2ccccc2)C1 (stereo not drawn)
Return: 44.5

Enquiry: // lookup TGI for CC1(O)CC2(O)C=CC3=C(C(=O)c4cccc(O)c4C3=O)C2(O)C(=O)C1O (stereo not drawn)
Return: 2.71

----------
# Tested on: U251 CNS
Respond only with the outcome that fits, drawn from y (active), n (inactive)

# Compound, Label Class
measured = [
    ("C[C@H]1[C@H](C)CC[C@]2(C(=O)O)CC[C@]3(C)C(=CC[C@@H]4[C@@]5(C)CC[C@H](OC(=O)/C=C/c6ccc(O)cc6)C(C)(C)[C@@H]5CC[C@]43C)[C@H]12", "n"),
]

Enquiry: Could you kindly confirm the outcome this assay logged for O=C1c2cc3c(cc2[C@@H]2[C@H]1c1ccc([N+](=O)[O-])cc1C(=O)N2CCCCl)OCO3 ?
Return: y

Enquiry: Could you kindly confirm the outcome this assay logged for Nc1ncnc2c(C3OC(CO)C(O)C3O)scc12 (centres undefined) ?
Return: n

Enquiry: Could you kindly confirm the outcome this assay logged for O=C(OCC1OC(OC(=O)c2cc(O)c(O)c(OC(=O)c3cc(O)c(O)c(O)c3)c2)C(OC(=O)c2cc(O)c(O)c(OC(=O)c3cc(O)c(O)c(O)c3)c2)C(OC(=O)c2cc(O)c(O)c(OC(=O)c3cc(O)c(O)c(O)c3)c2)C1OC(=O)c1cc(O)c(O)c(OC(=O)c2cc(O)c(O)c(O)c2)c1)c1cc(O)c(O)c(OC(=O)c2cc(O)c(O)c(O)c2)c1 (centres undefined) ?
Return: n

----------
# System: K-562 leukemia
# Measurement Notes: NCI tumour cell line growth inhibition, 48 h
# TGI per record follows

Guide cases for TGI, answers given:
# Molecule, TGI
records = [
    ("CC(CO)(CO)Nc1ncnc2ccccc12", "> 100 µM"),
    ("S=C=NCc1ccccc1", "> 19.9 µM"),
]

We next turn to a different molecule, shown below.
Enquiry: // lookup TGI for CCOC(CI)O[C@@H]1C=C[C@H](OC(C)=O)C1 (stereo partly drawn)
Return: > 100 µM

----------
# Test system: HT29 colon
# Measurement Notes: NCI tumour cell line growth inhibition, 48 h; in the data active = GI50 below about 0.43 µM; inactive = the rest
Respond only with the outcome that fits, drawn from active, inactive

Use these answered entries as a reference point.
# Structure Notation, Study Target, Label Class
data = [
    ("COc1c(NC(=O)CC(C)=O)[c]([Hg][O]C(C)=O)c(OC)c(Cl)[c]1[Hg][O]C(C)=O", "HT29 colon", "inactive"),
    ("N#CSCc1c(Cl)cccc1Cl", "HT29 colon", "inactive"),
    ("CC1(C)N=C(N)N=C(N)N1c1cccc(CCCCc2ccccc2)c1", "HT29 colon", "active"),
    ("Cc1ccc2c(Nc3cccc(Cl)c3F)ncc(NC(=O)c3csc4c(N)ncnc34)c2c1", "HT29 colon", "active"),
    ("Fc1ccc(-c2nnc3sc(COc4ccccc4Cl)nn23)cc1Cl", "HT29 colon", "inactive"),
]

Enquiry: Could you kindly confirm the outcome this assay logged for C[C@H]1[C@H](C)CC[C@]2(C(=O)O)CC[C@]3(C)C(=CC[C@@H]4[C@@]5(C)CC[C@H](OC(=O)/C=C/c6ccc(O)cc6)C(C)(C)[C@@H]5CC[C@]43C)[C@H]12 ?
Return: inactive

Enquiry: Could you kindly confirm the outcome this assay logged for COc1cc2c(c(OC)c1OC)-c1ccc(SC)c(=O)cc1[C@@H](NCc1cccc(C#N)c1)CC2 ?
Return: active

Recorded values, source PubChem BioAssay (NCI).
